target system: E. coli gyrase (Escherichia coli, UniProt P0AES4+P0AES6)
Construct: purchased Lucent, Ltd., Leicester, UK
experiment: DNA gyrase supercoiling inhibition assay
Format: biochemical
test context: supercoiling of relaxed pBR322, 30 minutes at 37° C.; read-out: Gyrase IC50
Binary call on IC50 with cut-off 6 µM: strictly below means Yes, and equality or higher means No.

[
  {
    "molecule": "N[C@@H]1[C@H]2CN(c3cc4c(cc3F)c(=O)n(O)c(=O)n4C3CC3)C[C@@H]12.O=C(O)C(F)(F)F",
    "class name": "Yes"
  },
  {
    "molecule": "O=c1c2cc(F)c(N3CCCC3)cc2n(-c2ccc(O)cc2)c(=O)n1O",
    "class name": "No"
  },
  {
    "molecule": "COc1cccc(-n2c(=O)n(O)c(=O)c3cc(F)c(N4CCCC4)cc32)c1",
    "class name": "No"
  },
  {
    "molecule": "O=c1c2cc(F)c(N3CCCC3)cc2n(C2CC2)c(=O)n1O",
    "class name": "No"
  },
  {
    "molecule": "O=c1c2cc(F)c(N3CCCC3)c3c2n(c(=O)n1O)CCS3",
    "class name": "No"
  },
  {
    "molecule": "NC1C2CN(c3c(F)cc4c(=O)n(O)c(=O)n5c4c3SCC5)CC12.O=C(O)C(F)(F)F (centres unmarked)",
    "class name": "No"
  },
  {
    "molecule": "O=c1c2cc(F)c(N3CCCC3)nc2n(C2CC2)c(=O)n1O",
    "class name": "No"
  },
  {
    "molecule": "NC1CCN(c2cc3c(cc2F)c(=O)n(O)c(=O)n3C2CC2)C1 (centres unmarked)",
    "class name": "Yes"
  }
]

Source of measurements: patent US6825199B2
